- experiment_summary: In vivo pharmacokinetic study after oral WSE
- settings: male, Sprague Dawley, rat, plasma, po, 500 mg/kg
result_type: AUC(0-inf) (ng·h/mL)
The answer is to be given in ng·h/mL; state only the numeric part.

Query: AUC(0-inf); subject: CC1=C(CO)C(=O)O[C@@H]([C@@H](C)[C@H]2CC[C@H]3[C@@H]4C[C@H]5O[C@]56[C@@H](O)C=CC(=O)[C@]6(C)[C@H]4CC[C@]23C)C1 [Withaferin A]
188

* * *

- experiment_summary: Ex vivo permeability study, everted rat intestine apparatus
result_type: Papp at 1 h, 2 mg/mL (nm/s)
Please give a number only; it is taken to be in nm/s.

Name the reported Papp at 1 h, 2 mg/mL value associated with the compound "CC1=C(CO)C(=O)O[C@@H]([C@@H](C)[C@H]2CC[C@H]3[C@@H]4C[C@H]5O[C@]56[C@@H](O)C=CC(=O)[C@]6(C)[C@H]4CC[C@]23C)C1"
1.13
